target or test system: ZFP SBS#1073 (synthetic)
Sequence (chain, as listed by the source): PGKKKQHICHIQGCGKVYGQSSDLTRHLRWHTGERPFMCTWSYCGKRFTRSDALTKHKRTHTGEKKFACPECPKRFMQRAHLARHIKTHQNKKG
measurement description: EMSA
stated conditions: tags: MBP fusion
observable: Kd (nM)

binder	observable	u	reported measurement
GGATTGGCT (dsDNA) DNA 1: GGATTGGCT DNA 2: AGCCAATCC	Kd	nM	1.37
